TESTED SYSTEM: Casein kinase II subunit alpha (Homo sapiens)
MEASUREMENT NOTES: Displacement of ARC-1504/ARC-1513-5O from CK2alpha (unknown origin) (1 to 335 residues) after 15 to 60 mins by luminescence assay
Sequence (P68400 whole entry, the tested form may be a part): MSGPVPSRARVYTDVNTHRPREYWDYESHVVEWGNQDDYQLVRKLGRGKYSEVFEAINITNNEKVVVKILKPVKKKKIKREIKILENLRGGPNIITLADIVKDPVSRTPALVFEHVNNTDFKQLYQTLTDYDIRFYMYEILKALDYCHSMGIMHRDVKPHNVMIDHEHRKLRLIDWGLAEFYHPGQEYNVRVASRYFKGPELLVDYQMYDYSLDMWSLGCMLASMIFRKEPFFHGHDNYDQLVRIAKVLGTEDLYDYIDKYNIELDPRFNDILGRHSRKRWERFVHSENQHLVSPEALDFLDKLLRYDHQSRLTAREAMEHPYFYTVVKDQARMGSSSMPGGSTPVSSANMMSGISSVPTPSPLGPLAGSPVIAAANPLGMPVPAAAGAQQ
OBSERVABLE: Kd (nM)
Answers are plain numbers, in nM.

Kd lookup needed for NCCCC[C@@H](NC(=O)[C@@H](CC(=O)O)NC(=O)[C@@H](CC(=O)O)NC(=O)[C@@H](CC(=O)O)NC(=O)[C@@H](CC(=O)O)NC(=O)[C@@H](CC(=O)O)NC(=O)[C@@H](CC(=O)O)NC(=O)CCCCCNC(=O)CCC(=O)Nc1ncc(-c2ccc(C(=O)O)cc2)s1)C(=O)O , thanks.
0.58

* * *

TESTED SYSTEM: Casein kinase II subunit alpha (Homo sapiens, UniProt P68400)
MEASUREMENT NOTES: Displacement of ARC-1504/ARC-1513-5O from CK2alpha (unknown origin) (1 to 335 residues) after 15 to 60 mins by luminescence assay
OBSERVABLE: Kd

smiles_input=CN(C)c1ccc2c(-c3ccc(C(=O)NCCCC[C@@H](NC(=O)[C@@H](CC(=O)O)NC(=O)[C@@H](CC(=O)O)NC(=O)[C@@H](CC(=O)O)NC(=O)[C@@H](CC(=O)O)NC(=O)[C@@H](CC(=O)O)NC(=O)[C@@H](CC(=O)O)NC(=O)CCCCCNC(=O)CCC(=O)Nc4ncc(-c5ccc(C(=O)O)cc5)[se]4)C(=O)O)cc3C(=O)[O-])c3ccc(=[N+](C)C)cc-3oc2c1 tested_system="Casein kinase II subunit alpha (Homo sapiens, UniProt P68400)" observable=Kd result="0.85 nM"
smiles_input=NCCCC[C@@H](NC(=O)[C@@H](CC(=O)O)NC(=O)[C@@H](CC(=O)O)NC(=O)[C@@H](CC(=O)O)NC(=O)[C@@H](CC(=O)O)NC(=O)[C@@H](CC(=O)O)NC(=O)[C@@H](CC(=O)O)NC(=O)CCCCCNC(=O)CCC(=O)Nc1ncc(-c2ccc(C(=O)O)cc2)[se]1)C(=O)O tested_system="Casein kinase II subunit alpha (Homo sapiens, UniProt P68400)" observable=Kd result="0.34 nM"
smiles_input=CN(C)c1ccc2c(-c3ccc(C(=O)NCCCC[C@@H](NC(=O)[C@@H](CC(=O)O)NC(=O)[C@@H](CC(=O)O)NC(=O)[C@@H](CC(=O)O)NC(=O)[C@@H](CC(=O)O)NC(=O)[C@@H](CC(=O)O)NC(=O)[C@@H](CC(=O)O)NC(=O)CCCCCNC(=O)CCC(=O)Nc4ncc(-c5ccc(C(=O)O)cc5)s4)C(=O)O)cc3C(=O)[O-])c3ccc(=[N+](C)C)cc-3oc2c1 tested_system="Casein kinase II subunit alpha (Homo sapiens, UniProt P68400)" observable=Kd result="0.4 nM"

Let us move to another entry and its Kd.
// map Nc1ncc(-c2ccc(C(=O)O)cc2)s1 to recorded Kd (system: Casein kinase II subunit alpha (Homo sapiens, UniProt P68400))
48 nM

* * *

TESTED SYSTEM: Casein kinase II subunit alpha (Homo sapiens, UniProt P68400)
MEASUREMENT NOTES: Displacement of ARC-1504/ARC-1513-5O from CK2alpha (unknown origin) (1 to 335 residues) assessed as photoluminescence lifetime using non-deoxygenated solution after 15 to 60 mins by luminescence assay
Sequence (P68400 whole entry, looked up, the tested form may be a part): as the sequence (P68400 whole entry, the tested form may be a part) above
OBSERVABLE: Time
Form field: result (number plus unit)

Recorded results for 3 molecules are shown here.
smiles_input=CN(C)c1ccc2c(-c3ccc(C(=O)NCCCC[C@@H](NC(=O)[C@@H](CC(=O)O)NC(=O)[C@@H](CC(=O)O)NC(=O)[C@@H](CC(=O)O)NC(=O)[C@@H](CC(=O)O)NC(=O)[C@@H](CC(=O)O)NC(=O)[C@@H](CC(=O)O)NC(=O)CCCCCNC(=O)CCC(=O)Nc4ncc(-c5ccc(C(=O)O)cc5)[se]4)C(=O)O)cc3C(=O)[O-])c3ccc(=[N+](C)C)cc-3oc2c1 observable=Time result="39 microsec"
smiles_input=NCCCC[C@@H](NC(=O)[C@@H](CC(=O)O)NC(=O)[C@@H](CC(=O)O)NC(=O)[C@@H](CC(=O)O)NC(=O)[C@@H](CC(=O)O)NC(=O)[C@@H](CC(=O)O)NC(=O)[C@@H](CC(=O)O)NC(=O)CCCCCNC(=O)CCC(=O)Nc1ncc(-c2ccc(C(=O)O)cc2)s1)C(=O)O observable=Time result="82 microsec"
smiles_input=CN(C)c1ccc2c(-c3ccc(C(=O)NCCCC[C@@H](NC(=O)[C@@H](CC(=O)O)NC(=O)[C@@H](CC(=O)O)NC(=O)[C@@H](CC(=O)O)NC(=O)[C@@H](CC(=O)O)NC(=O)[C@@H](CC(=O)O)NC(=O)[C@@H](CC(=O)O)NC(=O)CCCCCNC(=O)CCC(=O)Nc4ncc(-c5ccc(C(=O)O)cc5)s4)C(=O)O)cc3C(=O)[O-])c3ccc(=[N+](C)C)cc-3oc2c1 observable=Time result="62 microsec"

So what's the measured Time for this one? NCCCC[C@@H](NC(=O)[C@@H](CC(=O)O)NC(=O)[C@@H](CC(=O)O)NC(=O)[C@@H](CC(=O)O)NC(=O)[C@@H](CC(=O)O)NC(=O)[C@@H](CC(=O)O)NC(=O)[C@@H](CC(=O)O)NC(=O)CCCCCNC(=O)CCC(=O)Nc1ncc(-c2ccc(C(=O)O)cc2)[se]1)C(=O)O
55 microsec

The reported measurements were obtained from ChEMBL document CHEMBL4152360.
